The measured values listed here are drawn from PubChem BioAssay AID2060500.

Catalogue of viability, T/C readings, one per entry.
# System: 596521-263-R-J1-PDC complex spheroids, viability % of control;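 note: spheroids exposed to drugs for 7 days before viability reading; 100% = DMSO vehicle control viability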
# measurement_protocol: Anticancer human tumor 596521-263-R-J1-PDC patient-derived soft tissue sarcoma cell line growth inhibition [GQUAD]
# reported_conditions: second compound 0.1 µM; first compound 0.00999 µM; stronger effect = lower value
# Excerpt: DNA G-quadruplex Stabilizer Agents in Combinations in Complex Spheroids A high-throughput screen of multi-cell type tumor spheroids was designed to identify active combinations of DNA G-quadruplex stabilizer agents and targeted small molecules. […] Compounds. […] If the clinical Cmax for an agent had not been determined, the highest concentration tested was 10 microM. […]
endpoint_name: viability, T/C

INSERT INTO measurements (compound, value) VALUES
  ('CCc1c2c(nc3ccc(O)cc13)-c1cc3c(c(=O)n1C2)COC(=O)[C@]3(O)CC + Cc1cnc(CNC(=O)c2c(=O)c3ccc(N4CCCN(C)CC4)nc3n3c2sc2ccccc23)cn1', '49.3%'),
  ('CC[C@@]1(O)C(=O)OCc2c1cc1n(c2=O)Cc2cc3c(CN(C)C)c(O)ccc3nc2-1 + CN(C)c1ccc(Nc2c3ccc(NC(=O)CCN4CCCC4)cc3nc3cc(NC(=O)CCN4CCCC4)ccc23)cc1', '103%'),
  ('Cc1[nH]c2ccccc2c1CCNCc1ccc(/C=C/C(=O)NO)cc1 + Cc1[nH]c2ccc(F)cc2c1-c1nc2c3cccnc3c3ncccc3c2[nH]1', '94.2%'),
  ('Cc1[nH]c2ccccc2c1CCNCc1ccc(/C=C/C(=O)NO)cc1 + Cc1cnc(CNC(=O)c2c(=O)c3ccc(N4CCCN(C)CC4)nc3n3c2sc2ccccc23)cn1', '79.7%'),
  ('Cn1ncnc1[C@H]1c2n[nH]c(=O)c3cc(F)cc(c23)N[C@@H]1c1ccc(F)cc1 + Cc1[nH]c2ccc(F)cc2c1-c1nc2c3cccnc3c3ncccc3c2[nH]1', '96.7%'),
  ('Cn1ncnc1[C@H]1c2n[nH]c(=O)c3cc(F)cc(c23)N[C@@H]1c1ccc(F)cc1 + CN(C)c1ccc(Nc2c3ccc(NC(=O)CCN4CCCC4)cc3nc3cc(NC(=O)CCN4CCCC4)ccc23)cc1', '96.6%'),
  ('CC[C@@]1(O)C(=O)OCc2c1cc1n(c2=O)Cc2cc3c(CN(C)C)c(O)ccc3nc2-1 + Cc1[nH]c2ccc(F)cc2c1-c1nc2c3cccnc3c3ncccc3c2[nH]1', '92.5%'),
  ('CCc1c2c(nc3ccc(O)cc13)-c1cc3c(c(=O)n1C2)COC(=O)[C@]3(O)CC + CN(C)c1ccc(Nc2c3ccc(NC(=O)CCN4CCCC4)cc3nc3cc(NC(=O)CCN4CCCC4)ccc23)cc1', '41.3%'),
  ('CC[C@@]1(O)C(=O)OCc2c1cc1n(c2=O)Cc2cc3c(CN(C)C)c(O)ccc3nc2-1 + Cc1cnc(CNC(=O)c2c(=O)c3ccc(N4CCCN(C)CC4)nc3n3c2sc2ccccc23)cn1', '76.5%'),
  ('Cc1[nH]c2ccccc2c1CCNCc1ccc(/C=C/C(=O)NO)cc1 + CN(C)c1ccc(Nc2c3ccc(NC(=O)CCN4CCCC4)cc3nc3cc(NC(=O)CCN4CCCC4)ccc23)cc1', '78.1%'),
  ('Cn1ncnc1[C@H]1c2n[nH]c(=O)c3cc(F)cc(c23)N[C@@H]1c1ccc(F)cc1 + Cc1cnc(CNC(=O)c2c(=O)c3ccc(N4CCCN(C)CC4)nc3n3c2sc2ccccc23)cn1', '72.3%'),
  ('CCc1c2c(nc3ccc(O)cc13)-c1cc3c(c(=O)n1C2)COC(=O)[C@]3(O)CC + Cc1[nH]c2ccc(F)cc2c1-c1nc2c3cccnc3c3ncccc3c2[nH]1', '47.4%');
